# Target Or Test System: human progesterone receptor B (Homo sapiens, UniProt P06401)
# Construct: expressed in transfected cells; host or cells: SK-N-MC human neuroblastoma cells, stably transfected with pRChPR-B-neo and pMMTV-LUC
# Sequence (P06401 whole entry): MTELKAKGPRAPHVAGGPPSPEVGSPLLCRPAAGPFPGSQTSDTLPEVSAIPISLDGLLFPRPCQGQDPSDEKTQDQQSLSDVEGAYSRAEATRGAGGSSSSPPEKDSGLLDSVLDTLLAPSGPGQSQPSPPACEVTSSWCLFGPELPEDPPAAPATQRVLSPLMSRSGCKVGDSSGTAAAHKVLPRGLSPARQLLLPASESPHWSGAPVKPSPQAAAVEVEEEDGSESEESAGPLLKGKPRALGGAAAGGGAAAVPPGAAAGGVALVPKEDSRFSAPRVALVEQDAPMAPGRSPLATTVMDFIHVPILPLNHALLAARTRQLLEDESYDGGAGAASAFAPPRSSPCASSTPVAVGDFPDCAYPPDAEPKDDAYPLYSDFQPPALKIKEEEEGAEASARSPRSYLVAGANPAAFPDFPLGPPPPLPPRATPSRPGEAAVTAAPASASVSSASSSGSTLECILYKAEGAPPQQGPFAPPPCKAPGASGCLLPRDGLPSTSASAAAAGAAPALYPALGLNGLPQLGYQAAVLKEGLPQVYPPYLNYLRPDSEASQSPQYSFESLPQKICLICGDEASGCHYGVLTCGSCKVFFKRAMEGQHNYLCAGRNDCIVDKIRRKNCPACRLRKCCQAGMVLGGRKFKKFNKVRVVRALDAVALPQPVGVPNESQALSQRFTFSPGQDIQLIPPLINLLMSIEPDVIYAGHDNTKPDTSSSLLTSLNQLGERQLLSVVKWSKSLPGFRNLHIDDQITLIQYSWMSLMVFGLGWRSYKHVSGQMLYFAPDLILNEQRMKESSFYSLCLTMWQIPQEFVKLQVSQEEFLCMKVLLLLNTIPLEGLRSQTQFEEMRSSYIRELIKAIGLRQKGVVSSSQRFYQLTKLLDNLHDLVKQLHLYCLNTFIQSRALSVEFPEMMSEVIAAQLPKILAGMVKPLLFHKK
# Test Details: Progesterone receptor-antagonistic action in stably transfected SK-N-MC cells, PR-B, MMTV-LUC reporter
# Assay type: cell-based
# Assay Setup: read-out: IC50 PR-B
pIC50: −log10 of the molar value.
Assay Endpoint: pIC50

Guide cases for pIC50, answers given:
Compound: C[C@]12C[C@H](c3ccc(C#C/C=N/OCc4ccccc4)cc3)C3=C4CCC(=O)C=C4CCC3C1CC[C@@]2(O)C(F)(F)C(F)(F)F (stereo partly drawn) [Example 24A]
pIC50: 10.00
//
Compound: CCO/N=C/C#Cc1ccc([C@H]2C[C@@]3(C)[C@@H](CC[C@@]3(O)C(F)(F)C(F)(F)F)[C@@H]3CCC4=CC(=O)CCC4=C32)cc1 [Example 25A]
pIC50: 10.10
//
Compound: C[C@]12C[C@H](c3ccc(C#CCOC(=O)Nc4ccc(N5CCCCC5)cc4)cc3)C3=C4CCC(=O)C=C4CCC3C1CC[C@@]2(O)C(F)(F)C(F)(F)F (stereo partly drawn) [Example 54]
pIC50: 10.05

P: CCNC(=O)NCC#Cc1ccc([C@H]2C[C@@]3(C)C(CC[C@@]3(O)C(F)(F)C(F)(F)F)C3CCC4=CC(=O)CCC4=C32)cc1 (stereo partly drawn) [Example 31]
Q: COC(=O)COCC#Cc1ccc([C@H]2C[C@@]3(C)[C@@H](CC[C@@]3(O)C(F)(F)C(F)(F)F)[C@@H]3CCC4=CC(=O)CCC4=C32)cc1 [Example 9]
R: CC(C)(O)C#Cc1ccc([C@H]2C[C@@]3(C)[C@@H](CC[C@@]3(O)C(F)(F)C(F)(F)F)[C@@H]3CCC4=CC(=O)CCC4=C32)cc1 [Example 21]
Task item: Put these in order: smallest pIC50 first, largest last. # the answer lists labels in the order requested
Reply: Q, R, P

* * *

# Target Or Test System: human progesterone receptor A (Homo sapiens, UniProt P06401)
# Construct: expressed in transfected cells; host or cells: SK-N-MC human neuroblastoma cells, stably transfected with pRChPR-A-neo and pMMTV-LUC
# Sequence (P06401 165-933): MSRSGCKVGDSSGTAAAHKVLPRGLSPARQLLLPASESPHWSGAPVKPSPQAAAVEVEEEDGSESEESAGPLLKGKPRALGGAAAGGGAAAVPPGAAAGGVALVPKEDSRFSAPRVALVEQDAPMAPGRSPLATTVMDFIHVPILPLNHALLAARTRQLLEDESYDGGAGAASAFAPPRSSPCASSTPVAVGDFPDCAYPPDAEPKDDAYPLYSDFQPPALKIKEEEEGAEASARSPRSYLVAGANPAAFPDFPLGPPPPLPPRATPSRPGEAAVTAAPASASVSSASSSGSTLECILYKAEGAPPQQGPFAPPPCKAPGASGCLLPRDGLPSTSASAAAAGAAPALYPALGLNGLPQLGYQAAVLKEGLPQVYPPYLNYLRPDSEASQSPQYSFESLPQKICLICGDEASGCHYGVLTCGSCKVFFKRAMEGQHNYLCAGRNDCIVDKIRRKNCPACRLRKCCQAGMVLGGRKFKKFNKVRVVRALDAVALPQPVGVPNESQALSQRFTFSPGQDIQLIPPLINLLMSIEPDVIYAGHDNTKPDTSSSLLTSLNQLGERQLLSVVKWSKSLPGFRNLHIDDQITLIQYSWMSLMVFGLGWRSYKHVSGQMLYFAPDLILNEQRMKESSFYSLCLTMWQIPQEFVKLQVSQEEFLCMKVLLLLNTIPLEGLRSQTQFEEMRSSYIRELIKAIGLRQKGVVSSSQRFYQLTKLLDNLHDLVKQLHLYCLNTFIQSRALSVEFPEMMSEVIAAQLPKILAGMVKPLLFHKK
# Test Details: Progesterone receptor-antagonistic action in stably transfected SK-N-MC cells, PR-A, MMTV-LUC reporter
# Assay type: cell-based
# Assay Setup: antagonistic potency vs 0.1 nmol/l promegestone, SK-N-MC cells, 24 hours; read-out: IC50 PR-A
Assay Endpoint: pIC50
Expect pIC50 as a plain number equal to -log10 of the molar concentration.

Task item: Determine its reported pIC50: `C[C@]12C[C@H](c3ccc(C#Cc4ccc(S(C)(=O)=O)cc4)cc3)C3=C4CCC(=O)C=C4CC[C@H]3[C@@H]1CC[C@@]2(O)C(F)(F)C(F)(F)F`
Reply: 11.00

* * *

# Test Details: Metabolic stability in human liver microsomes
# Assay type: in vitro ADME
# Assay Setup: calculated from liver microsome data
Assay Endpoint: Predicted Fmax (maximum oral bioavailability) Human (%)

P: C[C@]12C[C@H](c3ccc(C#CCOCCO)cc3)C3=C4CCC(=O)C=C4CC[C@H]3[C@@H]1CC[C@@]2(O)C(F)(F)C(F)(F)F [Example 11]
Q: C[C@]12C[C@H](c3ccc(CO)cc3)C3=C4CCC(=O)C=C4CC[C@H]3[C@@H]1CC[C@@]2(O)C(F)(F)C(F)(F)F [Ref. 1*, reference compound]
R: CCNC(=O)NCC#Cc1ccc([C@H]2C[C@@]3(C)C(CC[C@@]3(O)C(F)(F)C(F)(F)F)C3CCC4=CC(=O)CCC4=C32)cc1 (stereo partly drawn) [Example 31]
Task item: Put the items above in order of decreasing Predicted Fmax (maximum oral bioavailability) Human. List the labels according to the requested ordering.
Reply: P, Q, R
